experimental-target: human KMO (Homo sapiens)
Construct: full-length human KMO was cloned as an N-terminal GST fusion; GST (N); made in house; host or cells: Sf9 insect cells, used as a membrane fraction
Sequence (O15229 whole entry, the tested form may be a part): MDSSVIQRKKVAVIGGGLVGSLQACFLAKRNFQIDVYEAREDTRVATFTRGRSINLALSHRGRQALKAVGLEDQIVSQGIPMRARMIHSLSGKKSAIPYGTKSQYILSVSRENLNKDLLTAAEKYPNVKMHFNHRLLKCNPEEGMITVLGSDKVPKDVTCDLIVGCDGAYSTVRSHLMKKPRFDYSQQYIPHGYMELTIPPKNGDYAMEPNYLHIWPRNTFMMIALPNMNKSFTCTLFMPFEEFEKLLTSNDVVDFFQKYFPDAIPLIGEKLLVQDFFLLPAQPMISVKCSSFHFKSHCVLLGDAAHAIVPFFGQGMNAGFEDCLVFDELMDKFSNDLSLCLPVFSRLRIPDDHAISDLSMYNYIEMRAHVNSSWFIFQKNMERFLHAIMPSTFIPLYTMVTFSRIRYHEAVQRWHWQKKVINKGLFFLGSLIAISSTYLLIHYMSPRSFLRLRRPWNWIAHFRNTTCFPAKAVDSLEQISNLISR
method: Rapidfire mass spectrometry IC50 assay, isolated human KMO
Format: biochemical
applied-conditions: human enzyme; mean of n determinations given in text; read-out: IC50 (mean potency, in vitro activity)
experimental-readout: IC50 (nM)
Just the number in nM, nothing appended.

// IC50 lookup, key: Cc1ccc([C@@H](C)Oc2cc3onc(CCC(=O)O)c3cc2Cl)nn1 [GSK366]
2
